Test system: UMRC2 (kidney)
Test: SRB cell growth inhibition assay, UMRC2
Format: cell-based
Details: Homo sapiens, UMRC2, 96 hours
measurement.type: pIC50
Friendly reminder that pIC50 comes from taking -log10 of the concentration in mol/L.

Q. pIC50 for Nc1ccn([C@@H]2C(F)=C(CO)[C@@H](O)[C@H]2O)c(=O)n1 ?
A. 6.08

====

Test system: SK-MEL-28 (melanoma)
Test: SRB cell growth inhibition assay, SK-MEL-28
Assay type: cell-based
Conditions: Homo sapiens, SK-MEL-28, 96 hours
measurement.type: pIC50
Friendly reminder that pIC50 comes from taking -log10 of the concentration in mol/L.

Q. pIC50 for Nc1ccn([C@@H]2C(F)=C(CO)[C@@H](O)[C@H]2O)c(=O)n1 ?
A. 5.86
